Test system: Panc10.05-G12D
Assay: Viability assay (CellTiterBlue, 72 hr) Panc10.05
Format: cell-based
Settings: Homo sapiens, Panc1005, GI50, CellTiterBlue, Panc10.05 K-Ras G12D, read-out: 72 hr Cell Viability Panc10.05 (G12D)
ENDPOINT_NAME: IC50 (µM)
Write the value in µM as a bare number.

Ask: Can you look up the measured IC50 of "CCc1cc(C(=O)Nc2nc(-c3ccc4c(c3)CCC(=O)N4)cs2)n(C)n1" for me?
Reply: 2.76

Ask: Can you look up the measured IC50 of "Cc1nc(C2CCCC2)sc1C(=O)Nc1nc(-c2ccc3c(c2)CCC(=O)N3)cs1" for me?
Reply: 7

Ask: Can you look up the measured IC50 of "Cc1nc(C)c(C(=O)Nc2nc(-c3ccc4c(c3)CCC(=O)N4Cc3ccc4ccccc4c3)cs2)o1" for me?
Reply: 9
